systemTested: mouse Abcg2 (Mus musculus, UniProt Q7TMS5)
Sequence (Q7TMS5 whole entry): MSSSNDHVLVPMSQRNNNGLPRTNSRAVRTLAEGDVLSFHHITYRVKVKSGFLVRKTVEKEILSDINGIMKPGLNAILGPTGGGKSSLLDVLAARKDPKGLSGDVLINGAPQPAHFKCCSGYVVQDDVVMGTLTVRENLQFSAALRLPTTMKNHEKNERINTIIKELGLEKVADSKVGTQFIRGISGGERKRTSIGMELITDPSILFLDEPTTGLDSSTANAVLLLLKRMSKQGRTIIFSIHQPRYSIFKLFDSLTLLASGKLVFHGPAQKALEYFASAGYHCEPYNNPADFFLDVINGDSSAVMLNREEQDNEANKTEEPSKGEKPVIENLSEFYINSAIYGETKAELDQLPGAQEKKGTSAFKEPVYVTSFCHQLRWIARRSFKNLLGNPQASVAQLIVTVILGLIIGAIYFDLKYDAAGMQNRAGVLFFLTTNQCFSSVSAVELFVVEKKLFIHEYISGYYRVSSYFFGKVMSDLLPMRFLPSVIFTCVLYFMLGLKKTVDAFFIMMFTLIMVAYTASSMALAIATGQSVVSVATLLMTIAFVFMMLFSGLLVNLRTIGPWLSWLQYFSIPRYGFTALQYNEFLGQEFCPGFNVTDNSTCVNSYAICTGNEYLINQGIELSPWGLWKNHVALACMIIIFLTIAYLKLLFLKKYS
experimentNotes: Transepithelial transport across MDCKII monolayers over-expressing mouse Abcg2
Assay type: in vitro ADME
settings: mouse
outcomeMeasure: efflux ratio at 4 h, 5 µM
// keep it numeric: no unit symbol after the value

Query: Answer with the recorded efflux ratio at 4 h, 5 µM of NC(=O)c1cccc(-c2cc(OC(=O)NC3CCCCC3)ccc2O)c1 only.
Reply: 13.6

* * *

experimentNotes: Transepithelial transport across MDCKII parental monolayers
Type: in vitro ADME, canine
settings: dog, MDCK
outcomeMeasure: efflux ratio at 4 h, 5 µM
// keep it numeric: no unit symbol after the value

Query: Answer with the recorded efflux ratio at 4 h, 5 µM of NC(=O)c1cccc(-c2cc(OC(=O)NC3CCCCC3)ccc2O)c1 only.
Reply: 1.5
